Values from paper PMC2871279

target: dvUT (Nitratidesulfovibrio vulgaris)
Reported Property: pKd
Quick note: pKd means taking -log10 of the concentration in moles per liter.

Indicate the recorded pKd value for this compound: NC(N)=O [urea]
2.64

---

Molecular target: dvUT (Nitratidesulfovibrio vulgaris, UniProt Q72CX3)
Sequence (Q72CX3 1-337): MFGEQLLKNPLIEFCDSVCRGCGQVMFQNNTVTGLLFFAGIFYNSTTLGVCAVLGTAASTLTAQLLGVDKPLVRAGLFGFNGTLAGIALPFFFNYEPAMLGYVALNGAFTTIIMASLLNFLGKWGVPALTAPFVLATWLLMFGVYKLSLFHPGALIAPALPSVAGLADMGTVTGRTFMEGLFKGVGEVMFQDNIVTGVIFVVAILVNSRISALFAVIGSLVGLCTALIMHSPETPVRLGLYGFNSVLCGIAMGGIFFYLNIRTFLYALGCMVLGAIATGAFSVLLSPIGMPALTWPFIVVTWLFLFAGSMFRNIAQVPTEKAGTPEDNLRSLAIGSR
Reported Property: pIC50
Scale: negative log10 of molar concentration, which is what pIC50 denotes.

Consider the molecule "NC(N)=O" tested on dvUT (Nitratidesulfovibrio vulgaris, UniProt Q72CX3); state its pIC50.
2.64
